- test-target: UniProt Q13191
- Sequence (Q13191 36-427): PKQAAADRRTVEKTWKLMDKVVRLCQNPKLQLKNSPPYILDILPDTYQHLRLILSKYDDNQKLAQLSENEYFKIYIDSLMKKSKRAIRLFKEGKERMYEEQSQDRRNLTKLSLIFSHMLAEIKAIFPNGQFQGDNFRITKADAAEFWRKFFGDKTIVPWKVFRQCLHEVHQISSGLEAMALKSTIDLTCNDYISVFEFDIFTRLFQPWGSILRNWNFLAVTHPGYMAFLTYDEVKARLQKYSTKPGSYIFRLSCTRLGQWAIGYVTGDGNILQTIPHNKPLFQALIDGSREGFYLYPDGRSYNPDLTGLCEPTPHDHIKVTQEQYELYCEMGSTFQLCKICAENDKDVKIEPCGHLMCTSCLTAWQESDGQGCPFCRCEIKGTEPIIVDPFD
- test-method-notes: Cbl-b activity assay (Cbl-b inhibition assay), TR-FRET of Cbl-b interaction with UbcH5B-Ub
- Assay type: biochemical
- measurement-context: assay buffer with 100 mM NaCl, 60 nM Src kinase; read-out: Cbl-b activity IC50
pIC50: −log10 of the molar value.
readout: pIC50

Request: Any idea what pIC50 was measured for Cn1cnnc1CC(C)(F)c1cccc(N2Cc3c(cccc3C(F)(F)F)C2=O)c1 (racemic) ?
Response: 6.52 to 7.00

Request: Reported pIC50, compound `C[C@H](Sc1nncn1C)c1ccnc(NC(=O)c2cc(C(F)(F)F)c(Cl)cn2)c1` : ____
Response: 5.00 to 5.52

Request: Need pIC50, item `C[C@H](Cc1nncn1C)c1cccc(NC(=O)c2ccnc(C(F)(F)F)n2)c1`
Response: 6.52 to 7.00

Request: Given the compound CC1CN(c2cc3c(c(C(F)(F)F)c2)CN(c2cccc(C4(Cc5nncn5C)COC4)c2)C3=O)C1C (stereo not drawn) , what is its reported pIC50?
Response: > 7.00

Request: Fill in: pIC50 of Cc1nnnn1CC(C)c1cccc(NC(=O)c2cccc(C(F)(F)F)n2)c1 (stereo not drawn) is ___
Response: < 5.00

Request: Given the entry CC(C)C1CN(Cc2cc3c(c(C(F)(F)F)c2)CN(c2cccc(C4(Cc5nncn5C)COC4)c2)C3=O)CCO1 (stereo not drawn) , report its measured pIC50.
Response: > 7.00

Request: Any idea what its pIC50 is? The compound is Cc1[nH]cnc1C[C@@H](C)c1cccc(N2Cc3c(cccc3C(F)(F)F)C2=O)c1 [Compound 272a]
Response: 6.52 to 7.00

Request: # pIC50 lookup, item `Cn1cnnc1CC1(c2cccc(N3Cc4c(cc(CN5CC(C#N)C5)cc4C(F)(F)F)C3=O)c2)COC1`
Response: > 7.00

Request: Look up pIC50: `Cn1cnnc1CC1(c2cccc(N3Cc4c(cc(CN5CC[C@@H](C#N)C5)cc4C(F)(F)F)C3=O)c2)COC1`
Response: > 7.00

Request: Record request: pIC50 value, item CC(Sc1nncn1C)c1cc(NCCO)nc(N2Cc3c(cccc3C(F)(F)F)C2=O)c1 (stereo not drawn)
Response: 5.52 to 6.00

Request: Entry `C[C@H](Sc1nncn1C)c1cccc(NC(=O)c2cc(C(=O)N3C[C@H](O)C[C@H]3C)ccn2)c1` has what pIC50?
Response: 5.00 to 5.52

Request: Which pIC50 value belongs to `C[C@H](Cc1nncn1C)c1cccc(NC(=O)c2cc(N[C@@H]3CC[C@H](O)C3)ccn2)c1` ?
Response: 5.52 to 6.00

Request: Quick check: pIC50 of `Cc1ccc(C(=O)Nc2cccc([C@@H](C)Cc3nccn3C)c2)nc1C1CC1` ?
Response: 6.00 to 6.52

Request: Entry `Cc1cc(C(=O)Nc2cccc([C@@](C)(F)C(F)(F)c3nncn3C)c2)nc(C2CC2)n1` : reported pIC50 = ?
Response: 6.52 to 7.00

Request: Returns the measured pIC50 for the input compound. Input: `C[C@H](Sc1nncn1C)c1cccc(NC(=O)c2cc(C(=O)N3CCC[C@H](O)C3)ccn2)c1`
Response: 5.00 to 5.52

Request: Please give the measured pIC50 for this compound: `C[C@@H]1CN(Cc2cc3c(c(C(F)(F)F)c2)CN(c2cccc(-c4c(-c5nncn5C)cnn4C)c2)C3=O)CCO1`
Response: > 7.00

Request: Field request: pIC50 | item: `C[C@H](Cc1nncn1C)c1cccc(N2Cc3c(cc(CN4CC[C@H](O)C4)cc3C(F)(F)F)C2=O)c1`
Response: > 7.00

Request: Which value of pIC50 has been reported for `C[C@H](Cc1nncn1C)c1cccc(NC(=O)c2cc(C(F)(F)F)n[nH]2)c1` in the records?
Response: 6.00 to 6.52

Request: So what's the measured pIC50 for this one? C[C@@H](c1cccc(N2Cc3c(cccc3C(F)(F)F)C2=O)c1)[C@H](F)c1nncn1C (relative stereo) [Compound 293]
Response: 6.52 to 7.00

Request: Report pIC50 for `Cn1cnnc1CC1(c2cccc(N3Cc4c(cccc4C(F)(F)F)C3=O)c2)COC1` please.
Response: > 7.00

Request: Endpoint output: pIC50 of `CCc1cccc(C(=O)Nc2cc([C@H](C)Sc3nncn3C)ccn2)n1` . Value?
Response: 5.52 to 6.00

Request: // pIC50 lookup, key: `Cn1cnnc1CC1(c2cccc(NC(=O)c3ccnc4ccnn34)c2)COC1`
Response: 6.52 to 7.00

Request: Suppose we examine the compound `CN(c1cc2c(c(C(F)(F)F)c1)CN(c1cccc([C@@](C)(F)C(F)(F)c3nncn3C)c1)C2=O)[C@@H]1CNC[C@H]1F` ; what pIC50 value has been reported?
Response: > 7.00

Request: Query: pIC50; subject: `Cn1cnnc1-c1cnn(C)c1-c1cccc(N2Cc3c(cccc3C(F)(F)F)C2=O)c1`
Response: 6.52 to 7.00

Request: I am curious: what pIC50 value has been reported for `Cc1cc(C(=O)Nc2cccc([C@H](C)Sc3nncn3C)c2)ncc1Cl` ?
Response: 6.00 to 6.52

Request: May I ask what pIC50 has been recorded for C=CCC(Sc1nncn1C)c1cccc(NC(=O)c2ccc3ccccc3n2)c1 (stereo not drawn) ?
Response: 5.52 to 6.00

Request: May I ask what pIC50 has been recorded for `C[C@H](Sc1nncn1C)c1cccc(NC(=O)c2cccc(S(C)(=O)=O)n2)c1` ?
Response: 5.52 to 6.00

Request: Which measured pIC50 value corresponds to `C[C@H](c1cc2c(c(C(F)(F)F)c1)CN(c1cccc([C@@](C)(F)C(F)(F)c3nncn3C)c1)C2=O)N1CC[C@H](F)C1` ?
Response: > 7.00

Request: Reported pIC50 for `Cc1conc1CC1(c2cccc(NC(=O)c3cc(CN4CCC5(CC5)C4)nc(C4CC4)n3)c2)COC1` : what is it?
Response: > 7.00

Request: Would you kindly share the measured pIC50 for C[C@H](Cc1nncn1C)c1cc(N[C@H]2CC[C@H]2O)nc(N2Cc3c(cccc3C(F)(F)F)C2=O)c1 [Example 689b] ?
Response: 6.00 to 6.52
